Hey, just so you know, these numbers are from ChEMBL document CHEMBL3112492.

Tested on: Toxoplasma gondii
procedure text: Antiprotozoal activity against tachyzoite stage of Toxoplasma gondii RH assessed as viability at 500 uM after 4 hrs by trypan blue exclusion assay relative to control
Format: functional
measured parameter: Activity (%)
All answers are understood in %, so give the number only.

The examples below pair each entry with its known result.
chemical_smiles=Br.O=C1CN(CCCCCN2CCCC2)c2ccc([N+](=O)[O-])cc2N1 measured_parameter=Activity unit_of_measurement=% recorded_value=0
chemical_smiles=Br.CN1C(=O)CN(CCCCCN2CCCC2)c2ccc([N+](=O)[O-])cc21 measured_parameter=Activity unit_of_measurement=% recorded_value=58
chemical_smiles=Br.O=C1CN(CCCCCN2CCCCCC2)c2ccc([N+](=O)[O-])cc2N1 measured_parameter=Activity unit_of_measurement=% recorded_value=0
chemical_smiles=Br.CN(C)CCCCCN1CC(=O)Nc2cc([N+](=O)[O-])ccc21 measured_parameter=Activity unit_of_measurement=% recorded_value=93
chemical_smiles=Br.CN(C)CCCCCN1CC(=O)N(C)c2cc([N+](=O)[O-])ccc21 measured_parameter=Activity unit_of_measurement=% recorded_value=93
chemical_smiles=Br.CN1C(=O)CN(CCCCCN2CCCCCC2)c2ccc([N+](=O)[O-])cc21 measured_parameter=Activity unit_of_measurement=% recorded_value=71
chemical_smiles=Br.CN1C(=O)CN(CCCCCN2CCCCC2)c2ccc([N+](=O)[O-])cc21 measured_parameter=Activity unit_of_measurement=% recorded_value=40

// below: Activity requested for another compound
IN: What does the record list as Activity for `Br.O=C1CN(CCCCCN2CCCCC2)c2ccc([N+](=O)[O-])cc2N1` ?
OUT: 0

----------
Test system: J774
procedure text: Cytotoxicity against mouse J774 cells at 1 ug/mL after 24 hrs by MTT assay
Type: cell-based
conditions used: j774, 24 h
measured parameter: Activity (%)
// note: answer is a bare numeric in %

Example compounds with recorded Activity:
compound=Br.CN1C(=O)CN(CCCCCN2CCCC2)c2ccc([N+](=O)[O-])cc21 system_under_test=J774 measured_parameter=Activity recorded_value=0
compound=Br.O=C1CN(CCCCCN2CCCCCC2)c2ccc([N+](=O)[O-])cc2N1 system_under_test=J774 measured_parameter=Activity recorded_value=0

IN: Dear colleague, I am looking for the recorded Activity of the following compound: `Br.O=C1CN(CCCCCN2CCc3ccccc3C2)c2ccc([N+](=O)[O-])cc2N1`
OUT: 9.89

IN: What value of measured Activity is listed for `Br.O=C1CN(CCCCCN2CCCCC2)c2ccc([N+](=O)[O-])cc2N1` ?
OUT: 0

IN: Query: Activity; subject: CC1CS(=O)(=O)CCN1/N=C/c1ccc([N+](=O)[O-])o1 (stereo unspecified)
OUT: 0

IN: Query: Activity; subject: `Br.O=C1CN(CCCCCN2CCCC2)c2ccc([N+](=O)[O-])cc2N1`
OUT: 0

----------
Tested on: Toxoplasma gondii
procedure text: Antiprotozoal activity against tachyzoite stage of Toxoplasma gondii RH assessed as viability at 200 uM after 4 hrs by trypan blue exclusion assay relative to control
Type: functional
Property: Activity; scope: individual molecules
Field: numeric (%). Do not append units.

Below, each entry is followed by its recorded Activity result.
chemical_smiles=Br.CN1C(=O)CN(CCCCCN2CCCCC2)c2ccc([N+](=O)[O-])cc21 measured_parameter=Activity unit_of_measurement=% recorded_value=90
chemical_smiles=Br.CN(C)CCCCCN1CC(=O)N(C)c2cc([N+](=O)[O-])ccc21 measured_parameter=Activity unit_of_measurement=% recorded_value=90
chemical_smiles=Br.CN(C)CCCCCN1CC(=O)Nc2cc([N+](=O)[O-])ccc21 measured_parameter=Activity unit_of_measurement=% recorded_value=96
chemical_smiles=Br.O=C1CN(CCCCCN2CCCC2)c2ccc([N+](=O)[O-])cc2N1 measured_parameter=Activity unit_of_measurement=% recorded_value=85

IN: // query Activity value for entry `Br.O=C1CN(CCCCCN2CCCCCC2)c2ccc([N+](=O)[O-])cc2N1`
OUT: 82
